Exercise: for every item that follows, state its recorded pIC50.
- System: HepG2 liver cancer cells
- Method: MTT assay for cytotoxic screening, HepG2
- Type: cell-based, human
- Measurement conditions: Homo sapiens, HepG2, 48 h, mean ± SE, n = 3
Numbers only, as −log10 of the molar value.

# Compound, pIC50
measured = [
    ("O=C1NC(=S)N(c2ccc(O)cc2)/C1=C/c1cccs1 [Compound 4]", 7.77),
]

Now for the compound whose pIC50 we want.
Briefly, pIC50 measured for CN[C@@H]1C[C@H]2O[C@@](C)([C@@H]1OC)n1c3ccccc3c3c4c(c5c6ccccc6n2c5c31)C(=O)NC4 [Staurosporine, reference compound] : 5.29
